Data provenance is patent US12398120B2.

What pIC50 was measured for each of the following?
# test.target: ADAMTS4 (Homo sapiens (Human))
# run.description: Selectivity assay for ADAMTS-7 modulators: ADAMTS4 (FRET substrate)
# Assay type: biochemical
# reported.conditions: ADAMTS4 (R&D 4307-AD) 50 nM, substrate Dabcyl-EEVKAKVQPY-Glu(Edans)-NH2 1 μM, 120 min, 32° C.
One number for each entry, as −log10 of the molar value.

Cn1nccc1C1(CNC(=O)c2cc(F)c(F)cc2-c2ccc(C(F)(F)F)cc2)NC(=O)NC1=O (single isomer, unassigned; ent-4) [Example 192] = 5.15
Cc1nc(C)c(C2(CNC(=O)c3ccccc3-c3ccc(C(F)(F)F)nc3)NC(=O)NC2=O)s1 (racemic) [Example 34] = 5.05
O=C1NC(=O)[C@](CNC(=O)c2ccc(Cl)cc2-c2ccc(Cl)cc2)(C2CC2)N1 [Example 232] = 5.43
Cc1ccc(-c2ccccc2C(=O)NCC2(c3nccn3C)NC(=O)NC2=O)cc1 (single isomer, unassigned; ent-4) [Example 146] = 5.72

INPUT: Find the recorded pIC50 belonging to O=C1NC(=O)C(CNC(=O)c2ccc(F)cc2-c2ccc(Cl)cc2)(C2(F)CC2)N1 (racemic) [Example 249] and report it.
OUTPUT: 4.46

====

# test.target: ADAMTS4 (Homo sapiens (Human), UniProt O75173)
# Sequence (O75173 213-685): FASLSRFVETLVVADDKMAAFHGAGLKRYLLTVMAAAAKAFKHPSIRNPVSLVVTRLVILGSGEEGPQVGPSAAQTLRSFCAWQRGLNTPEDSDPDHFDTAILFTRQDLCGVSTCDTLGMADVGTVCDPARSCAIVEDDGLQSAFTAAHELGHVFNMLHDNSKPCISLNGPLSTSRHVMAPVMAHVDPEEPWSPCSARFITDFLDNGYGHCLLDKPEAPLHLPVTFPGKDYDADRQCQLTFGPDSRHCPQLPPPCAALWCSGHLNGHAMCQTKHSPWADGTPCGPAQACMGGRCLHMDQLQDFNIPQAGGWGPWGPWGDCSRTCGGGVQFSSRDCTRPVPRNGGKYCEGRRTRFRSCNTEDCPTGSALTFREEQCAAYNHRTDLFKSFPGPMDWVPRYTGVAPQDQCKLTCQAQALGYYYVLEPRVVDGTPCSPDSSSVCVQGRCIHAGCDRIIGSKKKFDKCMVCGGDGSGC
# run.description: Selectivity assay for ADAMTS-7 modulators: ADAMTS4 (FRET substrate)
# Format: biochemical
# reported.conditions: ADAMTS4 (R&D 4307-AD) 50 nM, substrate Dabcyl-EEVKAKVQPY-Glu(Edans)-NH2 1 μM, 120 min, 32° C.
property: IC50 (µM)
Answers are plain numbers, in µM.

The examples below pair each entry with its known result.
CCC(F)(F)c1ccc(-c2ccccc2C(=O)NC[C@@]2(C3CC3)NC(=O)NC2=O)cc1 [Example 102] = 6.6
Cn1nccc1C1(CNC(=O)c2ccc(Cl)cc2-c2ccc(C(F)(F)F)nc2)NC(=O)NC1=O (single isomer, unassigned; ent-4) [Example 289] = 6.3
O=C1NC(=O)[C@](CNC(=O)c2c(F)cccc2-c2ccc(C(F)(F)F)cc2)(C2CC2)N1 [Example 230] = 33
Cc1ccc(C(=O)NCC2(C3CCC3)NC(=O)NC2=O)c(-c2ccc(C(F)(F)F)cc2)c1 (stereo not drawn) [Example 238] = 2

// for each compound in input: emit IC50
1. Cc1scnc1C1(CNC(=O)c2ccccc2-c2ccc(S(C)(=O)=O)cc2)NC(=O)NC1=O (single isomer, unassigned; ent-4) [Example 175]
2. O=C1NC(=O)C(CNC(=O)c2ccccc2-c2ccc(C(F)(F)F)nc2)(c2ccnn2C2CC2)N1 (racemic) [Example 40]
3. Cn1ccnc1C1(CNC(=O)c2cc(Cl)ccc2-c2ccc(C(F)(F)F)cc2)NC(=O)NC1=O (single isomer, unassigned; ent-4) [Example 156]
4. O=C1NC(=O)C(CNC(=O)c2ccccc2-c2ccc(C(F)(F)F)cc2)(c2ncccc2C(F)(F)F)N1 (stereo not drawn) [Example 244]

OUTPUT:
1. 4.9
2. 21
3. 25
4. 10

====

# test.target: ADAMTS4 (Homo sapiens (Human), UniProt O75173)
# run.description: Selectivity assay for ADAMTS-7 modulators: ADAMTS4 (FRET substrate)
# Type: biochemical
# reported.conditions: ADAMTS4 (R&D 4307-AD) 50 nM, substrate Dabcyl-EEVKAKVQPY-Glu(Edans)-NH2 1 μM, 120 min, 32° C.
property: pIC50
Numbers only, as −log10 of the molar value.

Cc1cnoc1C1(CNC(=O)c2ccccc2-c2ccc(C(F)(F)F)cc2)NC(=O)NC1=O (stereo not drawn) [Example 88] = 5.04
COc1ccc(C(=O)NC[C@@]2(C3CC3)NC(=O)NC2=O)c(-c2ccc(C3CC3)cc2)c1 [Example 103] = 5.15
O=C1NC(=O)[C@](CNC(=O)c2ccccc2-c2ccc(C(F)(F)F)cn2)(C2CC2)N1 [Example 84] = 4.30
Cc1ccc(-c2ccc(F)cc2C(=O)NCC2(c3nccn3C)NC(=O)NC2=O)cc1 (single isomer, unassigned; ent-4) [Example 152] = 6.15
Cn1cncc1C1(CNC(=O)c2ccccc2-c2ccc(C(F)(F)F)cc2)NC(=O)NC1=O (stereo not drawn) [Example 297] = 5.39

// for each compound in input: emit pIC50
1. Cc1nsnc1C1(CNC(=O)c2ccccc2-c2ccc(C(F)(F)F)nc2)NC(=O)NC1=O (stereo not drawn) [Example 91]
2. Cc1nocc1C1(CNC(=O)c2ccccc2-c2ccc(C(F)(F)F)cc2)NC(=O)NC1=O (stereo not drawn) [Example 68]
3. Cc1ccc(C(=O)NCC2(c3ncsc3C)NC(=O)NC2=O)c(-c2ccc(C(F)(F)F)cc2)c1 (racemic) [Example 167]
4. Cn1nccc1C1(CNC(=O)c2ccccc2-c2ccc(S(C)(=O)=O)cc2)NC(=O)NC1=O (stereo not drawn) [Example 194]
5. Cc1nscc1C1(CNC(=O)c2ccccc2-c2ccc(C(F)(F)F)nc2)NC(=O)NC1=O (stereo not drawn) [Example 64]

OUTPUT:
1. 4.52
2. 4.96
3. 5.36
4. 5.05
5. 4.92
